# Assay Target: T1, soluble CD19-HSA fusion protein (CD19 extracellular domains fused to human serum albumin) (human, UniProt P15391 20-291)
# T1 construct: extracellular domain; also called recombinant CD19 antigen; not shown: human serum albumin
# T1 sequence (looked up): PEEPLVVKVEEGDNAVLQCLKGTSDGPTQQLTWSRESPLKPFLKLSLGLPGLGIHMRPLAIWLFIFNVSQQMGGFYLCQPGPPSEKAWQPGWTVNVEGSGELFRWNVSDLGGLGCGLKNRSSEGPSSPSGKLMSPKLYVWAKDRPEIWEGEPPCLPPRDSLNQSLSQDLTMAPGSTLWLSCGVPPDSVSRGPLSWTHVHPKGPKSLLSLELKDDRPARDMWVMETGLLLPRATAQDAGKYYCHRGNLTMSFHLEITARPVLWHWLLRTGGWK
# Test Details: BLI (ForteBio Octet RED384), IgG on AHC sensors, 100 nM soluble CD19-HSA, 1:1 model
Endpoint Label: Kd (nM)
Kindly answer with a numeric value in nM, unit omitted.

Worked examples follow.
Antibody 1 (antibody, V domains shown, Human IgG produced in Adimab yeast, purified on Protein A; Has the VH and VL of #1 scFv; also called CD19 Antibody 1) VH: QVQLVESGGGVVQPGRSLRLSCAASGFTFSSYGMHWVRQAPGKGLEWVALIWYDGSNKYYADSVKGRFTISRDNSKNTLYLQMNSLRAEDTAVYYCAKPVEGLLRGFDYWGQGTLVTVSS VL: EIVMTQSPGTLSLSPGERATLSCRASQSVSSSYLAWYQQKPGQAPRLLIYGASNRATGIPDRFSGSGSGTDFTLTISRLEPEDFAVYYCQQAGVFPFTFGGGTKVEIK	32.9
Antibody 7 (antibody, V domains shown, Human IgG produced in Adimab yeast, purified on Protein A; Has the VH and VL of #7 scFv; also called CD19 Antibody 7) VH: QVQLVESGGGVVQPGRSLRLSCAASGFTFSSYGMHWVRQAPGKGLEWVALIWYDGSNKYYADSVKGRFTISRDNSKNTLYLQMNSLRAEDTAVYYCAKPVEGLLRGFDYWGQGTLVTVSS VL: EIVMTQSPGTLSLSPGERATLSCRASQSVSSSYLAWYQQKPGQAPRLLIYGASSRATGIPDRFSGSGSGTDFTLTISRLEPEDFAVYYCQQAGGVPPFTFGGGTKVEIK	14.9
Antibody 4 (antibody, V domains shown, Human IgG produced in Adimab yeast, purified on Protein A; Has the VH and VL of #4 scFv; also called CD19 Antibody 4) VH: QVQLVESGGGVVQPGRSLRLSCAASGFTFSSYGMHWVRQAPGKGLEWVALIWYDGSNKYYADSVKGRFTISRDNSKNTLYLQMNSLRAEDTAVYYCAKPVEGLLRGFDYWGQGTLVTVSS VL: EIVLTQSPGTLSLSPGERATLSCRASQSVSSSYLAWYQQKPGQAPRLLIYGASSRATGIPDRFSGSGSGTDFTLTISRLEPEDFAVYYCQQVDSLHPFTFGGGTKVEIK	9.27
Antibody 15 (antibody, V domains shown, Human IgG produced in Adimab yeast, purified on Protein A; Has the VH and VL of #15 scFv; also called CD19 Antibody 15) VH: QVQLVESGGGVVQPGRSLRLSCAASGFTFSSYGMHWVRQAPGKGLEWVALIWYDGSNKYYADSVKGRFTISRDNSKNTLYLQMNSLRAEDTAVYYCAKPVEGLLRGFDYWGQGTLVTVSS VL: EIVLTQSPGTLSLSPGERATLSCRASQSVSSSYLAWYQQKPGQAPRLLIYGASRRATGIPDRFSGSGSGTDFTLTISRLEPEDFAVYYCQQAGIPPYTFGGGTKVEIK	20.8
Antibody 5 (antibody, V domains shown, Human IgG produced in Adimab yeast, purified on Protein A; Has the VH and VL of #5 scFv; also called CD19 Antibody 5) VH: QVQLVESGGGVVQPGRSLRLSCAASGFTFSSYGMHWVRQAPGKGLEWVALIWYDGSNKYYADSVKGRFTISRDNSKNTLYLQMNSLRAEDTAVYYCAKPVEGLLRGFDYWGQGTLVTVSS VL: EIVLTQSPGTLSLSPGERATLSCRASQSVSSSYLAWYQQKPGQAPRLLIYGASSRATGIPDRFSGSGSGTDFTLTISRLEPEDFAVYYCQQAGGVPPLTFGGGTKVEIK	10.4

**Query** Look up Kd for this binder: Antibody 6 (antibody, V domains shown, Human IgG produced in Adimab yeast, purified on Protein A; Has the VH and VL of #6 scFv; also called CD19 Antibody 6) VH: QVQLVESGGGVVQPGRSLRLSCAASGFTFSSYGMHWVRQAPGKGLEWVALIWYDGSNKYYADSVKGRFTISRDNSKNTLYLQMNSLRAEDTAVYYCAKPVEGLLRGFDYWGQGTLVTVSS VL: EIVLTQSPGTLSLSPGERATLSCRASQSVRSSYLAWYQQKPGQAPRLLIYGASSRATGIPDRFSGSGSGTDFTLTISRLEPEDFAVYYCQQAGVPPLTFGGGTKVEIK
**Result** 6.4

**Query** Look up Kd for this binder: Antibody 2 (antibody, V domains shown, Human IgG produced in Adimab yeast, purified on Protein A; also called CD19 Antibody 2) VH: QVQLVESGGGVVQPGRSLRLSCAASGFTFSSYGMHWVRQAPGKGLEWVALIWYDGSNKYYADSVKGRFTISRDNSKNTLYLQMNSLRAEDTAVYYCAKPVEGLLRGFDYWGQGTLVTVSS VL: EIVLTQSPGTLSLSPGERATLSCRASQSVSSSYLAWYQQKPGQAPRLLIYGASSRATGIPDRFSGSGSGTDFTLTISRLEPEDFAVYYCQQAGAVPITFGGGTKVEIK
**Result** 9.01

Origin of measurements: patent US20230346938A1
